test system: HT-29; assay: Inhibitory concentration value against human colon adenocarcinoma HT-29 tumor cell line; format: functional, cell-based
Measurement Name: IC50

Recorded results for 4 compounds are shown here.
{"columns": ["Smiles Record", "IC50"],
 "data": [
  ["COc1cc(/C=C\\c2ccc3c(c2)c2ccccc2n3C)cc(OC)c1OC", "> 10 µM"],
  ["COc1cc(CCc2ccc3ccccc3c2)cc(OC)c1OC", "0.31 µM"],
  ["COc1ccc(/C=C\\c2cc(OC)c3ccccc3c2)cc1O", "3.62 µM"],
  ["COCCOc1cc(/C=C/c2ccc3ccccc3c2)ccc1OC", "> 5 µM"]
]}

# value of IC50, HT-29, item `CC(=O)Oc1ccc(/C=C/c2ccc3ccccc3c2)cc1` = > 5 µM

# value of IC50, HT-29, item `COc1cc(/C=C\c2ccc(N(C)C)c([N+](=O)[O-])c2)cc(OC)c1OC` = > 5 µM

====

test system: HT-29; experiment: Inhibitory concentration value against human colon adenocarcinoma HT-29 tumor cell line; format: functional, cell-based
Measurement Name: pIC50
Units for pIC50: none; it is -log10 of a concentration expressed in mol/L.

Recorded results for 5 molecules are shown here.
{"columns": ["Smiles Record", "Measurement Name", "Test Value"],
 "data": [
  ["COc1cc(/C=C\\c2cn(C(C)=O)c3ccccc23)cc(OC)c1OC", "pIC50", 5.55],
  ["COc1cc(/C=C/c2ccc3[nH]ccc3c2)cc(OC)c1OC", "pIC50", 6.55],
  ["COc1cc(/C=C\\c2ccc3ccccc3c2)cc(N)c1OC", "pIC50", 6.48],
  ["COc1cc(/C=C/c2ccc3ccccc3c2)cc(OC)c1OC", "pIC50", 6.41],
  ["COc1cc(/C=C/c2ccc(N(C)C)c(N)c2)cc(OC)c1OC", "pIC50", 6.52]
]}

# value of pIC50, HT-29, item `COc1cc(/C=C\c2ccc3[nH]ccc3c2)cc(OC)c1OC` = 7.46

====

system: A549; assay: Inhibitory concentration value against human A-549 tumor cell line; assay type: functional, cell-based
pIC50: −log10 of the molar value.
Given measured pIC50, output 1 (yes) if it is greater than or equal to 7 and 0 (no) if not.

Worked examples, 3 compounds total:
{"columns": ["Smiles Record", "Answer Label"],
 "data": [
  ["COc1ccc(/C=C\\c2cc(OC)c3ccccc3c2)cc1O", "1 (yes)"],
  ["COc1ccc(/C=C/c2ccc3ccccc3c2)cc1[N+](=O)[O-]", "0 (no)"],
  ["COc1cc(/C=C\\c2ccc3c(c2)c2ccccc2n3C)cc(OC)c1OC", "0 (no)"]
]}

Data request: Has `COc1cc(/C=C\c2ccc(N(C)C)c(N)c2)cc(OC)c1OC` a recorded pIC50 greater than or equal to 7?
Data returned: 1 (yes)

Data request: Has `FC(F)(F)c1ccc(/C=C/c2ccc3ccccc3c2)cc1` a recorded pIC50 greater than or equal to 7?
Data returned: 0 (no)

Data request: Has `COc1cc(/C=C/c2ccc(N(C)C)c([N+](=O)[O-])c2)cc(OC)c1OC` a recorded pIC50 greater than or equal to 7?
Data returned: 0 (no)

Data request: Has `CN(C)c1ccc(/C=C/c2ccc3ccccc3c2)cc1` a recorded pIC50 greater than or equal to 7?
Data returned: 0 (no)

Data request: Has `COc1cc(/C=C/c2ccc(N(C)C)c(N)c2)cc(OC)c1OC` a recorded pIC50 greater than or equal to 7?
Data returned: 0 (no)

====

tested on: HT-29; test: Inhibitory concentration value against human colon adenocarcinoma HT-29 tumor cell line; assay type: functional, cell-based
Measurement Name: IC50 (µM)
Return type: number; implicit unit µM.

Recorded results for 5 molecules are shown here.
{"columns": ["Smiles Record", "Test Value"],
 "data": [
  ["COCCOc1cc(/C=C\\c2ccc3ccccc3c2)ccc1OC", 2.99],
  ["COc1cc2ccc(CCc3ccc4ccccc4c3)cc2cc1O", 3.59],
  ["COc1ccc(/C=C/c2cc(OC)c3ccccc3c2)cc1O", 3.62],
  ["COc1cc(/C=C/c2occc2C)cc(OC)c1OC", 3.65],
  ["COc1cc(/C=C/c2ccc3c(c2)c2ccccc2n3C)cc(OC)c1OC", 0.45]
]}

# evaluate next
# value of IC50, HT-29, item `COc1cc(/C=C\c2ccc(N(C)C)c(N)c2)cc(OC)c1OC` = 0.004

====

test system: A549; test: Inhibitory concentration value against human A-549 tumor cell line; format: functional, cell-based
We begin with a simple list: items and their reported log10 IC50.
Give log10 of IC50, with IC50 taken in µM.

Recorded results for 3 compounds are shown here.
{"columns": ["Smiles Record", "log10 IC50"],
 "data": [
  ["COc1cc(/C=C\\c2ccc3[nH]ccc3c2)cc(OC)c1OC", -0.41],
  ["COc1cc(/C=C/c2ccc3[nH]ccc3c2)cc(OC)c1OC", -0.33],
  ["COc1cc(/C=C/c2cn(C)c3ccccc23)cc(OC)c1OC", 0.49]
]}

Item: `CN(C)c1ccc(/C=C\c2ccc3ccccc3c2)cc1` | log10 IC50: 0.56

Item: `COc1cc(/C=C/c2c[nH]c3ccccc23)cc(OC)c1OC` | log10 IC50: 0.51

Item: `COc1cc(/C=C/c2ccc3ccccc3c2)cc(OC)c1OC` | log10 IC50: -0.41

Item: `FC(F)(F)Oc1cccc(/C=C\c2ccc3ccccc3c2)c1` | log10 IC50: 0.54

Item: `COc1ccc(/C=C/c2cc(OC)c3ccccc3c2)cc1O` | log10 IC50: 0.56

Item: `COc1cc(/C=C/c2occc2C)cc(OC)c1OC` | log10 IC50: 0.56

Item: `COc1cc(/C=C\c2ccc3ccccc3c2)cc(N)c1OC` | log10 IC50: 0.21

Item: `COCCOc1cc(/C=C\c2ccc3ccccc3c2)ccc1OC` | log10 IC50: 0.48

Item: `Cn1ccc2cc(/C=C/c3ccc4ccccc4c3)ccc21` | log10 IC50: 0.55

Item: `COc1ccc(/C=C/c2ccc3ccccc3c2)cc1N` | log10 IC50: 0.26

Item: `COc1cc2ccc(CCc3ccc4ccccc4c3)cc2cc1O` | log10 IC50: 0.56

Item: `COc1ccc(/C=C\c2ccc3ccccc3c2)cc1O` | log10 IC50: -2.52

Item: `COc1cc(/C=C/c2ccc3ccccc3c2)cc(N)c1OC` | log10 IC50: 0.33

Item: `COc1cc(CCc2ccc3ccccc3c2)cc(OC)c1OC` | log10 IC50: -0.51

Item: `COCCOc1cc(/C=C/c2ccc3ccccc3c2)ccc1OC` | log10 IC50: 0.48

Item: `COc1cc(/C=C\c2ccc3ccccc3c2)ccc1F` | log10 IC50: -0.35

====

tested on: HT-29; test: Inhibitory concentration value against human colon adenocarcinoma HT-29 tumor cell line; format: functional, cell-based
Measurement Name: IC50

# value of IC50, HT-29, item `COc1cc(/C=C\c2ccc3c(ccn3S(=O)(=O)c3ccccc3)c2)cc(OC)c1OC` = > 5 µM

====

system: A549; assay: Inhibitory concentration value against human A-549 tumor cell line; assay type: functional, cell-based
Measurement Name: IC50

Recorded results for 2 compounds are shown here.
{"columns": ["Smiles Record", "IC50"],
 "data": [
  ["COc1ccc(/C=C\\c2ccc3ccccc3c2)cc1[N+](=O)[O-]", "> 20 µM"],
  ["C(=C/c1ccc2ccccc2c1)/c1ccc2c(c1)-c1ccccc1C2", "> 5 µM"]
]}

Item: `COc1ccc(/C=C/c2ccc3ccccc3c2)cc1` | IC50: > 5 µM

Item: `C(=C/c1ccco1)/c1ccc2ccccc2c1` | IC50: > 5 µM

Item: `CC(=O)Oc1ccc(/C=C/c2ccc3ccccc3c2)cc1` | IC50: > 5 µM

Item: `Cn1c2ccccc2c2cc(/C=C/c3ccc4ccccc4c3)ccc21` | IC50: > 5 µM

====

test system: HT-29; test: Inhibitory concentration value against human colon adenocarcinoma HT-29 tumor cell line; format: functional, cell-based
Measurement Name: IC50

Recorded results for 6 compounds are shown here.
{"columns": ["Smiles Record", "IC50"],
 "data": [
  ["COc1cc(/C=C\\c2ccc3ccccc3c2)ccc1F", "0.45 µM"],
  ["C(=C/c1ccc2ccccc2c1)/c1ccoc1", "> 5 µM"],
  ["Cn1ccc2cc(/C=C\\c3ccc4ccccc4c3)ccc21", "> 5 µM"],
  ["CN(C)c1c([N+](=O)[O-])cc(/C=C/c2ccc3ccccc3c2)cc1[N+](=O)[O-]", "> 5 µM"],
  ["Oc1ccc(/C=C/c2ccc3ccccc3c2)cc1", "4.06 µM"],
  ["COc1ccc(/C=C\\c2ccc3ccccc3c2)cc1[N+](=O)[O-]", "3.28 µM"]
]}

Item: `COc1c(N)cc(/C=C\c2ccc3ccccc3c2)cc1N` | IC50: > 5 µM

Item: `C(=C\c1ccc2ccccc2c1)/c1ccc2c(c1)-c1ccccc1C2` | IC50: > 5 µM
